Reference source for all entries: patent US9447158B2

Measured % of … [SEQ ID NO: 124] Reaction Velocity at an Inhibitor Concentration of 100 µM on MAPKAP Kinase II (MK2) follows.
Write the number in % without appending the unit.

Record KALNdRQLGVAA (peptide) has MAPKAP Kinase II (MK2) % of … [SEQ ID NO: 124] Reaction Velocity at an Inhibitor Concentration of 100 µM equal to 306

Record KALNRQLGdVAA (peptide) has MAPKAP Kinase II (MK2) % of … [SEQ ID NO: 124] Reaction Velocity at an Inhibitor Concentration of 100 µM equal to 260

Record KALNRdQLGVAA (peptide) has MAPKAP Kinase II (MK2) % of … [SEQ ID NO: 124] Reaction Velocity at an Inhibitor Concentration of 100 µM equal to 276

Record KALNRQdLGVAA (peptide) has MAPKAP Kinase II (MK2) % of … [SEQ ID NO: 124] Reaction Velocity at an Inhibitor Concentration of 100 µM equal to 357

Record KALdNRQLGVAA (peptide) has MAPKAP Kinase II (MK2) % of … [SEQ ID NO: 124] Reaction Velocity at an Inhibitor Concentration of 100 µM equal to 95
